- Tested on: clinical isolates of Mycobacterium tuberculosis
- Assay Remarks: microbe, parasite or virus in culture
- Type: cell-based
- Condition Context: Mycobacterium tuberculosis, 168 h, clinical isolate strain 7; air with 5% CO2, 7H9/10% OADC, 7 days
Listed below: MIC values for each entry.

Sample records with MIC:
Smiles Entry | Subject Of Test | MIC
NNC(=O)c1ccncc1 | clinical isolates of Mycobacterium tuberculosis | 5 µg/mL
CO[C@H]1/C=C/O[C@@]2(C)Oc3c(C)c(O)c4c(O)c(c(/C=N/N5CCN(C)CC5)c(O)c4c3C2=O)NC(=O)/C(C)=C\C=C\[C@H](C)[C@H](O)[C@@H](C)[C@@H](O)[C@@H](C)[C@H](OC(C)=O)[C@@H]1C | clinical isolates of Mycobacterium tuberculosis | > 40 µg/mL
Cc1ncc([N+](=O)[O-])n1CCO | clinical isolates of Mycobacterium tuberculosis | > 32 µg/mL

Now turn to the next molecule.
Ask: Name the recorded MIC for CO[C@H]1/C=C/O[C@@]2(C)Oc3c(C)c(O)c4c(c3C2=O)C2=NC3(CCN(CCn5c([N+](=O)[O-])cnc5C)CC3)NC2=C(NC(=O)/C(C)=C\C=C\[C@H](C)[C@H](O)[C@@H](C)[C@@H](O)[C@@H](C)[C@H](OC(C)=O)[C@@H]1C)C4=O .
Reply: 2 µg/mL
